Test system: SF-295 CNS
Test: NCI-60 one-dose screen, 48 h
Settings: 10 µM unless noted
Compounds without any hit were thinned out: in the full panel of roughly 83,000, 20% have a hit. Activity calls are given as the source filed them. The calls were made as follows: active = growth percent below 10; inactive = the rest.
Classes used: active, inactive

[[record]]
compound = "Cc1c(C(=O)O)nnn1-c1nccs1"
cat = "inactive"

[[record]]
compound = "CCOc1ccc(-c2nc3ccc(-c4nc5ccc(N6CCN(C)CC6)cc5[nH]4)cc3[nH]2)cc1OCC"
cat = "inactive"

[[record]]
compound = "Cc1c(Cl)cccc1NS(=O)(=O)c1ccccc1"
cat = "inactive"

[[record]]
compound = "CO[C@H]1/C=C/O[C@@]2(C)Oc3c(C)c(O)c4c(c3C2=O)C(=O)C(/C=N/N(c2ccccc2)c2ccccc2)=C(NC(=O)/C(C)=C\\C=C\\[C@H](C)[C@H](O)[C@@H](C)[C@@H](O)[C@@H](C)[C@H](OC(C)=O)[C@@H]1C)C4=O"
cat = "active"

[[record]]
compound = "COc1ccc(-n2ncn(CCCCCCn3cnn(-c4ccc(OC)cc4)c3=O)c2=O)cc1"
cat = "inactive"

[[record]]
compound = "Cc1ccc(C)c2c1C(=O)OC2=O"
cat = "inactive"

[[record]]
compound = "CCCCOC(=O)c1ccc(NC(=O)C(C)N2CCOCC2)cc1 (stereo not given)"
cat = "inactive"

[[record]]
compound = "Nc1ccn(C2OC(F)(CO)C(O)C2F)c(=O)n1 (stereo not given)"
cat = "inactive"

[[record]]
compound = "CCN(CC)CCCC(C)NCc1ccccc1 (stereo not given)"
cat = "inactive"

[[record]]
compound = "COC(=O)Nc1nc2ccc(C(=O)C3CC3)cc2[nH]1"
cat = "active"

[[record]]
compound = "O=C1NC(=S)S/C1=C\\N1N=C(c2ccc(Cl)cc2)CC1c1ccc(F)cc1 (stereo not given)"
cat = "inactive"

[[record]]
compound = "CCN(CC)CCOc1ccc(/C(=C(\\C)c2ccc(OC)c(F)c2)c2ccc(Cl)cc2)cc1"
cat = "inactive"

[[record]]
compound = "C[C@H]1[C@H](C)CC[C@]2(C(=O)N3CCN(C)CC3)CC[C@]3(C)C(=CC[C@@H]4[C@@]5(C)C/C(=C/c6cccnc6)C(=O)C(C)(C)[C@@H]5CC[C@]43C)[C@H]12"
cat = "active"

[[record]]
compound = "C[C@@H]1C(=O)N(C[C@H](Cc2ccccc2)N(Cc2ccccc2)Cc2ccccc2)[C@]1(Cc1ccccc1)C(=O)OC(C)(C)C"
cat = "inactive"

[[record]]
compound = "C=C(C)[C@@H]1CC[C@@]2(C(=O)O)CC[C@]3(C)C(CCC4[C@@]5(C)CCC(OS(=O)(=O)c6ccccc6)C(C)(C)C5CC[C@]43C)C12 (stereo not given in full)"
cat = "active"

[[record]]
compound = "CNC1(C#N)CCN(Cc2ccccc2)CC1"
cat = "inactive"

[[record]]
compound = "N=C(N)c1ccc(-c2ccc(/C=C/c3ccccc3)s2)cc1"
cat = "active"

[[record]]
compound = "CCOC(=O)c1sc(-c2ccc(OS(=O)(=O)c3ccc(C(C)(C)C)cc3)c(C=O)c2)nc1C"
cat = "inactive"

[[record]]
compound = "CCCn1nc(-c2ccccc2)c2c(-c3ccccc3)onc2c1=O"
cat = "inactive"

[[record]]
compound = "Cc1nc(-c2ccccc2)cc2c(O)c(C(=O)N/N=C/c3ccc(N(C)C)cc3)[nH]c(=O)c12"
cat = "inactive"


Values were extracted from PubChem BioAssay (NCI).
